Data origin: paper PMC7999199

Protocol: Vero cell viability, MTT test, 72 h
Assay type: cell-based, African green monkey
Experimental Conditions: African green monkey; dissolved in PBS; Vero cells, MTT, 72 h
Protocol: Before testing antiviral activity, the effect of porphyrins dissolved in PBS and Pluronic F-127 on the viability of Vero cells was evaluated. Cells were incubated for 72 h using different concentrations of porphyrins (0.39–100 μM). Viability was assessed using the MTT test (Figure S13, Table S1, Supplementary Information). […] Cell viability was assessed by MTT reduction assay. […] The solution was read on a spectrophotometer at 540 nm. […]

Molecule	CC50 at 72 h
C[n+]1ccc(-c2c3nc(c(-c4cc[n+](C)cc4)c4ccc([nH]4)c(-c4cc[n+](C)cc4)c4nc(c(-c5cc[n+](C)cc5)c5ccc2[nH]5)C=C4)C=C3)cc1 [TMePyP, reference compound]	> 100 µM
O=C(CC[n+]1ccccc1)Oc1ccc(-c2c3nc(c(-c4ccc(OC(=O)CC[n+]5ccccc5)cc4)c4ccc([nH]4)c(-c4ccc(OC(=O)CC[n+]5ccccc5)cc4)c4nc(c(-c5ccc(OC(=O)CC[n+]6ccccc6)cc5)c5ccc2[nH]5)C=C4)C=C3)cc1	> 100 µM

---

Protocol: Vero cell viability, MTT test, 72 h
Type: cell-based, African green monkey
Experimental Conditions: African green monkey, Vero cells, -F127 (PBS); 3.13 µM/L; Vero, MTT, 3 days; read-out: Viability % ±s.d.
viability at 72 h, 3.13 µM reference
Attribute Measured: viability at 72 h, 3.13 µM (%)

Molecule	Attribute Measured	Recorded Value
C[n+]1ccc(-c2c3nc(c(-c4cc[n+](C)cc4)c4ccc([nH]4)c(-c4cc[n+](C)cc4)c4nc(c(-c5cc[n+](C)cc5)c5ccc2[nH]5)C=C4)C=C3)cc1 [TMePyP, reference compound]	viability at 72 h, 3.13 µM	101
O=C(CC[n+]1ccccc1)Oc1ccc(-c2c3nc(c(-c4ccc(OC(=O)CC[n+]5ccccc5)cc4)c4ccc([nH]4)c(-c4ccc(OC(=O)CC[n+]5ccccc5)cc4)c4nc(c(-c5ccc(OC(=O)CC[n+]6ccccc6)cc5)c5ccc2[nH]5)C=C4)C=C3)cc1	viability at 72 h, 3.13 µM	106

---

Protocol: Vero cell viability, MTT test, 72 h
Format: cell-based, African green monkey
Experimental Conditions: African green monkey, Vero cells, -F127 (PBS); 1.56 µM/L; Vero, MTT, 3 days; read-out: Viability % ±s.d.
Attribute Measured: viability at 72 h, 1.56 µM (%)

Compound	Recorded Value
O=C(CC[n+]1ccccc1)Oc1ccc(-c2c3nc(c(-c4ccc(OC(=O)CC[n+]5ccccc5)cc4)c4ccc([nH]4)c(-c4ccc(OC(=O)CC[n+]5ccccc5)cc4)c4nc(c(-c5ccc(OC(=O)CC[n+]6ccccc6)cc5)c5ccc2[nH]5)C=C4)C=C3)cc1 [3a]	108

---

viability at 72 h, 25 µM reference
Protocol: Vero cell viability, MTT test, 72 h
Type: cell-based, African green monkey
Experimental Conditions: African green monkey, Vero cells, -F127 (PBS); 25 µM/L; Vero, MTT, 3 days; read-out: Viability % ±s.d.

Compound	Unit Symbol	viability at 72 h, 25 µM
O=C(CC[n+]1ccccc1)Oc1ccc(-c2c3nc(c(-c4ccc(OC(=O)CC[n+]5ccccc5)cc4)c4ccc([nH]4)c(-c4ccc(OC(=O)CC[n+]5ccccc5)cc4)c4nc(c(-c5ccc(OC(=O)CC[n+]6ccccc6)cc5)c5ccc2[nH]5)C=C4)C=C3)cc1	%	90.9
C[n+]1ccc(-c2c3nc(c(-c4cc[n+](C)cc4)c4ccc([nH]4)c(-c4cc[n+](C)cc4)c4nc(c(-c5cc[n+](C)cc5)c5ccc2[nH]5)C=C4)C=C3)cc1 [TMePyP, reference compound]	%	95.3
